Data provenance: paper PMC6561178

molecular target: Ec Hfq (Hfq102) (Escherichia coli, UniProt P0A6X3 1-102); assay: EMSA; Hill n 8.2; Tris-glycine gel; EMSA: 34 mM Tris-HCl pH 7.5, 50 mM NaCl, 50 mM KCl, 50 mM NH4Cl, 11.4 mM EDTA, 12% glycerol, 30 C, 30 min, ~1 nM 32P-RNA, Kd in Hfq6; anisotropy: 10 mM Tris-HCl; settings: protein: recombinant; tags: untagged; chain copies: 6; label: 32P; stem-loops
Readout kind: Kd
Answer with the figure and its unit, nothing else.

**Q:** If you can, please state the reported Kd value of R157 (structured_RNA) RNA: GGUGAGGCGCCGAGCGCCUCUGCCCUUCCUGGGCGUUUCCUCCCUAUGACUUUGUAGCCCGGUCUUCAUGGCCGGGCUUUCUUUUU .
**A:** 14.3 nM
